Study target: PLpro (Severe acute respiratory syndrome coronavirus 2 (2019-nCoV) (SARS-CoV-2), UniProt P0DTD1)
Test summary: Assay for PLpro inhibitory activity (Ub-AMC fluorescence; single point inhibition test and IC50 determination)
Assay type: biochemical
Test conditions: read-out: inhibition of PLpro (1 μM), 1 μM test compound, 100 nM PLpro, 10 μM Ub-AMC, 37° C. 30 min
Measurement kind: inhibition at 1 µM (%)
One number for each entry, in %.

Completed entries (count: 5):
# Compound, Measurement kind, Reading
records = [
    ("Cc1ccc(N2CCS(=O)(=O)CC2)cc1C(=O)NC1(c2ccc(F)c3ncccc23)CC1", "inhibition at 1 µM", 32.8),
    ("Cc1ccc(NC2CN3CCC2CC3)cc1C(=O)NC1(c2ccnc3ccccc23)CC1 (centres unmarked)", "inhibition at 1 µM", 31.1),
    ("COC1(C)CN(c2ccc(C)c(C(=O)NC3(c4cccc5ncccc45)CC3)c2)C1", "inhibition at 1 µM", 3.5),
    ("Cc1ccc(N2CC(N(C)C)C2)cc1/C=N/C1(c2ccc(F)c3ncccc23)CC1", "inhibition at 1 µM", 11.9),
    ("Cc1ccc(N2CCS(=O)(=O)CC2)cc1C(=O)NC1(c2ccnc3ccccc23)CC1", "inhibition at 1 µM", 41),
]

List inhibition at 1 µM for every entry below, keeping the order given.
1. Cc1ccc(N2CC(N(C)C)C2)cc1C(=O)NC1(c2ccc(F)c3nc(C(F)F)ccc23)CC1
2. Cc1ccc(N2CC(C(=O)O)C2)cc1C(=O)NC1(c2cccc3ncccc23)CC1
3. Cc1ccc(N2CC(N(C)C)C2)cc1C(=O)NC1(c2ccc(F)c3ncccc23)CC1

Given back:
92
12.6
95.9

###

Study target: PLpro (Severe acute respiratory syndrome coronavirus 2 (2019-nCoV) (SARS-CoV-2), UniProt P0DTD1)
I'd be grateful if you could share measured pIC50 for these entries.
One number for each entry, as −log10 of the molar value.

Use these answered entries as a reference point.
# Molecule, Reading
data = [
    ("COc1ccc2c(C3(NC(=O)c4cc(N5CC(N(C)C)C5)ccc4C)CC3)ccc(F)c2n1 [Example C64]", 7.30),
    ("[2H]C1([2H])C(N(C)C)C([2H])([2H])N1c1ccc(C)c(C(=O)NC2(c3ccc(F)c4ncccc34)CC2)c1 [Example C90]", 7.16),
    ("Cc1ccc(N2CC(N(C)C)C2)cc1C(=O)NC1(c2cccc3ncccc23)CC1 [Example C27]", 7.01),
    ("Cc1ccc(N2CC(N(C)C)C2)cc1C(=O)NC1(c2cccc3c2CCCC3)CC1 [Example C21]", 7.04),
    ("Cc1ccc(N2CC(N(C)C)C2)cc1C(=O)NC1(c2ccc(C)c3ccccc23)CC1 [Example C14]", 6.69),
    ("Cc1ccc(N2CC(N(C)C)C2)cc1C(=O)NC1(c2cccc3occc23)CC1 [Example C24]", 6.37),
    ("Cc1ccc(N2CC(N(C)C)C2)cc1C(=O)NC1(c2ccc(Cl)c3ccccc23)CC1 [Example C11]", 7.08),
    ("Cc1ccc(N2CC(N(C)C)C2)cc1C(=O)NC1(c2cnc(O)c3ccccc23)CC1 [Example C73]", 6.76),
    ("Cc1ccc(N2CC(N(C)C)C2)cc1C(=O)NC1(c2ccc(Br)c3ccccc23)CC1 [Example C13]", 7.10),
    ("COc1cccc2c(C3(NC(=O)c4cc(N5CC(N(C)C)C5)ccc4C)CC3)ccnc12 [Example C30]", 7.17),
]

Parameter requested: pIC50. Apply to each item below.
1. Cc1ccc(N2CC(N(C)C)C2)cc1C(=O)NC1(c2ccnc3c(F)cccc23)CC1 [Example C67]
2. Cc1ccc(N2CC(N(C)C)C2)cc1C(=O)NC1(c2ccc(C)c3ncccc23)CC1 [Example C75]
3. Cc1ccc(N2CC(N(C)C)C2)cc1C(=O)NC1(c2cccc3c(Cl)cccc23)CC1 [Example C17]
4. Cc1ccc(N2CC(N(C)C)C2)cc1C(=O)NC1(c2csc3ccccc23)CC1 [Example C20]
5. Cc1ccc(N2CC(N(C)C)C2)cc1C(=O)NC1(c2cccc3c(F)cccc23)CC1 [Example C18]
6. COc1ccc(C2(NC(=O)c3cc(N4CC(N(C)C)C4)ccc3C)CC2)c2ccccc12 [Example C12]

Given back:
1. 7.44
2. 8.33
3. 7.73
4. 7.12
5. 7.75
6. 7.73

###

Study target: PLpro (Severe acute respiratory syndrome coronavirus 2 (2019-nCoV) (SARS-CoV-2), UniProt P0DTD1)
Test summary: Assay for PLpro inhibitory activity (Ub-AMC fluorescence; single point inhibition test and IC50 determination)
Type: biochemical
Test conditions: read-out: inhibition of PLpro (1 μM), 1 μM test compound, 100 nM PLpro, 10 μM Ub-AMC, 37° C. 30 min
Quick rule: inhibition at 1 µM of at least 60% means met, below that means not met.

Below are worked cases with known answers.
# Test smiles, Class assignment
data = [
    ("COc1ccc2c(C3(NC(=O)c4cc(N5CC(N(C)C)C5)ccc4C)CC3)ccc(F)c2n1", "met"),
    ("Cc1ccc(N2CC(N(C)C)C2)cc1C(=O)NC1(c2ccc3ccccc3c2)CC1", "not met"),
    ("Cc1ccc(N2CC(N(C)C)C2)cc1C(=O)NC1(c2cccc3occc23)CC1", "met"),
    ("Cc1ccc(N2CC(N(C)C)C2)cc1C(=O)NC1(c2ccc(C)c3ccccc23)CC1", "met"),
]

Now let's try a different one.
Asked: Can "Cc1ccc(N2CC(N(C)C)C2)cc1C(=O)NC1(c2cccc3c2OCO3)CC1" be said to have inhibition at 1 µM at or above 60%?
Given back: not met

###

Study target: PLpro (Severe acute respiratory syndrome coronavirus 2 (2019-nCoV) (SARS-CoV-2))
Test summary: Assay for PLpro inhibitory activity (Ub-AMC fluorescence; single point inhibition test and IC50 determination)
Assay type: biochemical
Test conditions: read-out: inhibition of PLpro (1 μM), 1 μM test compound, 100 nM PLpro, 10 μM Ub-AMC, 37° C. 30 min
I'd be grateful if you could share measured inhibition at 1 µM for these entries.
Give bare numbers, in %.

Reference set, count: 7
# Molecule, Readout unit, inhibition at 1 µM
measured = [
    ("Cc1ccc(N)cc1CNC1(c2ccc(F)c3ncccc23)CC1", "%", 33.5),
    ("Cc1ccc(N2CCS(=O)(=O)CC2)cc1C(=O)NC1(c2ccc(F)c3ccccc23)CC1", "%", 2.6),
    ("COc1ccc(C2(NC(=O)c3cc(N4CC(N(C)C)C4)ccc3C)CC2)c2cccnc12", "%", 99.6),
    ("Cc1ccc(N2CC(N(C)C)C2)cc1C(=O)NC1(c2ccc(Cl)c3ccccc23)CC1", "%", 96.8),
    ("Cc1ccc(N2CC(N(C)C)C2)cc1C(=O)NC1(c2cc(C(F)(F)F)nc3c(C(F)(F)F)cccc23)CC1", "%", 85),
    ("Cc1ccc(N2CC(N(C)C)C2)cc1C(=O)NC1(c2ccnc3c(F)cccc23)CC1", "%", 97.7),
    ("Cc1ccc(N2CC(N(C)C)C2)cc1C(=O)NC1(c2ccc(N(C)C)c3ccccc23)CC1", "%", 96.2),
]

Now for a further molecule.
inhibition at 1 µM on PLpro (Severe acute respiratory syndrome coronavirus 2 (2019-nCoV) (SARS-CoV-2)) for Cc1ccc(N2CCCC(N(C)C)C2)cc1C(=O)NC1(c2ccnc3ccccc23)CC1 (centres unmarked) is 43.9

###

Study target: PLpro (Severe acute respiratory syndrome coronavirus 2 (2019-nCoV) (SARS-CoV-2))
Test summary: Assay for PLpro inhibitory activity (Ub-AMC fluorescence; single point inhibition test and IC50 determination)
Format: biochemical
Test conditions: read-out: inhibition of PLpro (1 μM), 1 μM test compound, 100 nM PLpro, 10 μM Ub-AMC, 37° C. 30 min
Param threshold (90%) applies to inhibition at 1 µM; output label 1 when value >= threshold, label 0 when value < threshold.

# Test smiles, Class assignment
rows = [
    ("Cc1ccc(N2CC(N(C)C)C2)cc1C(=O)NC1(c2cccc3cc(F)c(F)cc23)CC1", "label 1"),
    ("Cc1ccc(N2CC3CCC(C2)N3)cc1C(=O)NC1(c2cccc(C(C)(C)C)c2)CC1", "label 0"),
]

Asked: Does "Cc1ccc(N2CCN(C3CC3)CC2)cc1C(=O)NC1(c2ccc(F)c3ccccc23)CC1" have a reported inhibition at 1 µM of at least 90%?
Given back: label 0

Asked: Check if inhibition at 1 µM >= 90% (inclusive). Item: "Cc1ccc(N2CC(N(C)C)C2)cc1C(=O)NC1(c2ccnc3c(Cl)cccc23)CC1"
Given back: label 1

Asked: Check if inhibition at 1 µM >= 90% (inclusive). Item: "Cc1ccc(N2CCNCC2)cc1C(=O)NC1(c2ccc(F)c3ccccc23)CC1"
Given back: label 1

Asked: Does the reported inhibition at 1 µM for "Cc1ccc(N2CC(N(C)C)C2)cc1C(=O)NC1(c2cccc3c2ccn3C)CC1" fall at or above the 90% mark?
Given back: label 0

Asked: Check the entry "Cc1ccc(N2CC(N(C)C)C2)cc1C(=O)NC1(C2=CCCc3ccccc32)CC1" : does inhibition at 1 µM equal or exceed 90%?
Given back: label 0

Asked: Quick check, inhibition at 1 µM >= 90%? "Cc1ccc(N2CC(N(C)C)C2)cc1C(=O)NC1(c2ccc(OC(F)F)c3ccccc23)CC1"
Given back: label 1
